This collection of values is drawn from PubChem BioAssay AID449750.

experiment: non-covalent RecA intein splicing inhibitors, dose response, biochemical, cell-free, fluorescence, secondary screen (AID 449750)
Active and inactive are the calls of the source. How the calls were made is not given here.
Permitted responses: yes (active), no (inactive)

Q. # lookup: test call for CNCC(O)CN(c1ccccc1)c1ccccc1 (stereo not given)
A. yes

Q. Hey, what did the test say about O=[N+]([O-])c1ccc(Sc2nnnn2-c2ccccc2)nc1 ?
A. no

Q. Hi team, can someone confirm the assay call for O=C1NC(c2ccc(-c3ccccc3[N+](=O)[O-])o2)C(C(=O)c2ccc(Cl)cc2)C(O)(C(F)(F)F)N1 (stereo not given) ?
A. yes

Q. # fetch the recorded call for O=C1C(Nc2ccccc2)=C/C(=N/S(=O)(=O)c2cccs2)c2ccccc21 here
A. yes

Q. Outcome logged for CC(C)(C)c1csc(NC(=O)c2c(F)c(F)c(F)c(F)c2F)n1 in this assay:
A. yes

Q. Please share the test call associated with Cc1c(C#N)c(NC(=O)CCl)n(Cc2ccccc2)c1C .
A. yes

Q. # lookup: test call for Cc1ccc(Nc2cc(C)nn2-c2nc(C)cc(=O)[nH]2)cc1
A. yes

Q. # fetch the recorded call for CC(c1ccc(O)cc1)(c1ccc(O)cc1)c1ccc(CCBr)cc1 here
A. yes

Q. Dear colleague, could you share the recorded outcome for Cc1cccc(N2CC(C(=O)OCC(=O)c3ccc(OC(=O)c4cccs4)cc3)CC2=O)c1C (stereo not given) when you have a moment?
A. no

Q. Hi team, can someone confirm the assay call for CC1(CC(=O)N/N=C/c2ccc(OCc3ccc(Cl)cc3Cl)cc2)OCCCO1 ?
A. yes

* * *

assay: non-covalent RecA intein splicing inhibitors, dose response, biochemical, cell-free, fluorescence, secondary screen (AID 449750)
The source made the active and inactive calls. No rule for the calls is given here.
Lab note: assign the record to one of label 1 (active), label 0 (inactive)

Q. // return assay outcome for COc1ccc(C(=O)c2c(C(F)(F)F)oc3c2C(=O)c2ccccc2C3=O)cc1OC
A. label 0

Q. Please share the test call associated with CC(=O)c1c(C)nc(-c2ccc(Cl)cc2)nc1N=CN(C)C .
A. label 0

Q. Hello, I am checking results. What call was entered for CN1N=C(C(C)(C)C)CC1=O ?
A. label 0

Q. Answer briefly: the call reported for O=C(OCn1ncc(Cl)c(Cl)c1=O)c1cccc(C(F)(F)F)c1 in this assay.
A. label 1

Q. Per the records of this test, what outcome belongs to CCOC1=C/C(=C/c2c(N)n3oc(C)cc3nc2=O)C=CC1=O ?
A. label 0

Q. Give the logged outcome of this assay for the following compound: CC(=O)Nc1ccc(NC(=O)CSc2ncc(C(=O)Nc3ccc(F)cc3)c(=O)n2C)cc1
A. label 0

Q. How was O=c1cc(-c2ccc(F)cc2)[nH][nH]1 classified in this test?
A. label 1

Q. Please indicate how the test categorized Cc1cc(=O)n(CCCc2ccccc2)[nH]1 .
A. label 1

Q. Hi, do you know how CCc1nnc(NS(=O)(=O)c2ccc(NC(=S)NC(=O)/C=C/c3ccc(C(C)C)cc3)cc2)s1 came out in this test?
A. label 1

Q. Answer briefly: the call reported for COC(=O)c1[nH]c(=O)c2ccccc2c1O in this assay.
A. label 1

Q. Returns: the outcome recorded for O=[N+]([O-])c1ccc(N2CCCC(C(F)(F)F)C2)c2ccncc12 (stereo unspecified) in this assay.
A. label 0

* * *

assay: non-covalent RecA intein splicing inhibitors, dose response, biochemical, cell-free, fluorescence, secondary screen (AID 449750)
Activity calls are given as the source filed them. How the calls were made is not given here.
Form entry, call: pick from True = active, False = inactive

Q. Would you mind telling me which call this test gave COc1ccc(C2NC(=O)NC3=C2CCc2ccccc23)cc1 (centres undefined) ?
A. False

Q. Dear colleague, could you share the recorded outcome for N#CC1=C(N)Oc2n[nH]c(-c3cccs3)c2C1c1ccoc1 (centres undefined) when you have a moment?
A. False

Q. Outcome? CCC(C)[C@H](NC(=O)NC1CCN(Cc2ccccc2)CC1)C(=O)OC (some centres undefined)
A. True

Q. Name the outcome recorded for Oc1ccc(N=Cc2ccc(OCc3ccccc3)cc2)cc1 in the assay.
A. False

Q. Please share the test call associated with COc1cc(/C=C2/C(=O)N(c3cccc(Br)c3)N=C2C)cc(OC)c1O .
A. True

Q. Call for entry COc1cc(C(c2c(C)[nH][nH]c2=O)c2c(C)[nH][nH]c2=O)cc(OC)c1OC :
A. True

Q. Record request — test call for O=C(CCl)Nc1cccc(-c2cnc3ccccc3n2)c1
A. True

Q. Status in this test for CCOC(=O)N1CCC2(CC1)C(C#N)=C(N)Oc1n[nH]c(C)c12 ?
A. False

Q. Given O=C(CCl)N=c1sccn1Cc1ccc(Cl)cc1Cl , state the outcome it received in this test.
A. True

Q. Outcome logged for O=C(CCN1C(=O)/C(=C/c2cccs2)SC1=S)Nc1cccc(O)c1 in this assay:
A. False

Q. Called result for N#Cc1cc(-c2ccccc2)nc(Oc2ccccc2)n1
A. False

Q. What did this assay record as the result for COc1cccc(-c2[nH]nc3c2C(c2ccoc2)C(C#N)=C(N)O3)c1 (centres undefined) ?
A. True

Q. Dear all, I need the recorded test outcome for Cc1ccc(S[C@@H](CCN2CC[C@H](C)CCC2=O)c2ccccc2)cc1 , thank you.
A. True

Q. Hi, do you know how CC1=C(C(=O)OC(C)C)C2(O)C(=O)c3ccccc3C2(O)N1 (centres undefined) came out in this test?
A. True

Q. For O=C(O)CN1C(=O)/C(=C\c2ccc(OC(=O)c3ccco3)cc2)SC1=S , what call appears in the results of this test?
A. False

Q. Tell me the recorded outcome of this test for O=C(CCl)c1ccc2c(c1)CCN2C(=O)C1CCCCC1 .
A. False

Q. State the result this test recorded for CC(C)(C)C(=O)Nc1ccc(N=Nc2ccccc2)cc1 .
A. True

Q. Each compound tested received a call. Report the one for Cc1ccc(C)c(NC(=O)CSc2n[nH]c(-c3ccccn3)n2)c1 .
A. False

Q. // return assay outcome for COC(=O)c1ccccc1Sc1ncnc2onc(C)c12
A. False

Q. What outcome does the record of this test show for COC(=O)CSc1nc(N)c2c3c(sc2n1)C(c1ccccc1)SC(c1ccccc1)C3 (centres undefined) ?
A. False

Q. // outcome(item) with item = Cc1cc2c3c(c1)C(C)CC(C)(C)N3C(=O)C2=C(C#N)C#N (centres undefined)
A. False

Q. Assay result, entry CC1=NNC(=O)/C1=C\c1cn(-c2ccccc2)nc1-c1ccc(F)cc1 — outcome?
A. True

Q. Outcome logged for CC(=O)n1cc(N(C(=O)CCl)c2ccc(Cl)cc2)c2ccccc21 in this assay:
A. True

Q. Tell me the assay call for CN(Cc1ccc(Cl)s1)C(=O)CCl please.
A. True

Q. Outcome? O=C1C(Nc2ccc(O)cc2)=C/C(=N/S(=O)(=O)c2cccs2)c2ccccc21
A. True

Q. Status in this test for CCOC(=O)CSc1nnc(NCC(=O)OC(C)C)c(=O)[nH]1 ?
A. False

Q. I'd appreciate the recorded outcome for Cc1ccc(NC(=O)COc2cccc(/C=C3\SC(=S)N(CCC(=O)O)C3=O)c2)cc1Cl from this test.
A. True

Q. Outcome? CCOc1ccc(S(=O)(=O)Nc2cc(SCC(=O)O)c(O)c3ccccc23)cc1
A. True

Q. Dear all, I need the recorded test outcome for COc1cc(/C=C2/C(=O)N(c3ccc([N+](=O)[O-])cc3)N=C2N2CCOCC2)ccc1O , thank you.
A. True

Q. // param item: COc1ccc(-c2cc(=O)[nH][nH]2)cc1OC ; yields the recorded call
A. True

Q. Entry O=c1cc(-c2ccc(C3CCCCC3)cc2)[nH][nH]1 : call = ?
A. True

Q. Which outcome was assigned to CCOC(=O)Cc1c(C)c2c(C)[nH]nc2oc1=O in this test?
A. False

Q. Hey, what did the test say about COc1ccc(-c2cc(=O)n(CCC#N)[nH]2)cc1 ?
A. True

Q. Hello, I am checking results. What call was entered for COc1ccc(C(=O)N/N=C\c2coc3ccc(Cl)cc3c2=O)cc1 ?
A. False

Q. Which outcome was assigned to Cn1nc([N+](=O)[O-])c(C(C#N)c2ccccn2)c(Cl)c1=O (centres undefined) in this test?
A. False

Q. Name the outcome recorded for Cc1cccc(OCC(=O)Oc2ccc(Cl)cc2)c1 in the assay.
A. False

Q. Recorded call for CCCc1[nH]nc2c1C(CCC)C(C#N)=C(N)O2 (centres undefined) ?
A. False

Q. Short answer needed: outcome of this test for Cc1cccn2c(CNCC3(c4ccccc4)CCCC3)c(C(=O)N3CCOCC3)nc12 ?
A. False

Q. For CCc1ccc(NC(=O)CSc2ccc(-c3sc(C)nc3C)nn2)cc1 , which call appears in the assay record?
A. False

Q. Answer briefly: the call reported for CC(C)c1nnc(NC(=O)c2nc(S(=O)(=O)Cc3ccccc3F)ncc2Cl)s1 in this assay.
A. False

Q. Dear colleague, could you share the recorded outcome for O=C1C(Nc2cccc(O)c2)=C(N2CCCCC2)C(=O)c2ccccc21 when you have a moment?
A. True

Q. How was Cc1cccc(CS(=O)(=O)c2ncc(Cl)c(C(=O)NCc3ccc4c(c3)OCO4)n2)c1 classified in this test?
A. False

Q. Returns: the outcome recorded for N#C[C@H]1[C@H](c2ccccc2)[C@](C#N)(C(=O)c2ccccc2)[C@@H]2C=Cc3ccccc3N21 in this assay.
A. False

Q. Please let me know the test result on file for CCc1ccc(N2C(=O)C(Cl)=C(N3CCOCC3)C2=O)cc1 .
A. False
